B1: CDS2 (parent)
chain: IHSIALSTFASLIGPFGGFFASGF

- Variants of: B1
- test method notes: protein stability index of a GFP-peptide fusion (GPS, HEK-293T) (PSI 1-6); higher = more stable;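 further: lentivirally expressed fusions sorted by FACS into six bins by GFP to DsRed ratio, PSI derived from sequencing read proportions per bin multiplied by bin number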
- measurement conditions: c terminus: a fixed tail appended
readout kind: protein stability index
Numbers only.

S7I; 2.94

For every item below, please supply its protein stability index.
1. I1V
2. I1W
3. A5Y
4. I1F

[A]
2.61
3.6
2.88
2.15
